system: E. coli strain MCM597; test: Nitrogen sources affecting isoprene production (Biolog PM3B plates); format: cell-based; details: 0.5% glucose as sole carbon source, no yeast extract; p<0.1
property.label: specific isoprene production

Example cases with answers are listed next.
N[C@@H](Cc1ccc(O)cc1)C(=O)O [L-tyrosine] = negatively affecting
CSCC[C@H](N)C(=O)O [L-methionine] = negatively affecting
Nc1ncnc2nc[nH]c12 [adenine] = negatively affecting
NC(=O)C[C@H](N)C(=O)O [L-asparagine] = increasing

Item N[C@@H](CC(=O)O)C(=O)O [L-aspartic acid] has what recorded specific isoprene production? increasing

Same again, this time with OC[C@H]1O[C@@H](n2cnc3c(O)ncnc32)[C@H](O)[C@@H]1O [inosine] increasing

Queued: Nc1nc2c(ncn2[C@@H]2O[C@H](CO)[C@@H](O)[C@H]2O)c(=O)[nH]1 [guanosine] increasing

Also N[C@@H](CCC(=O)O)C(=O)O [L-glutamic acid] ? increasing

And for N[C@@H](Cc1c[nH]c2ccccc12)C(=O)O [L-tryptophan] ? increasing

Another: N[C@@H](CO)C(=O)O [L-serine] increasing

Record: C[C@@H](O)[C@H](N)C(=O)O [L-threonine] increasing
